# System: HL-60
# ASSAY_TEXT: NCI tumour cell line growth inhibition, 48 h
Active and inactive are the calls of the source. Rule as the data show it: active = GI50 up to about 1.1 µM and inactive = higher.
Measured GI50, listed per entry.
PARAMETER_MEASURED: GI50

[
  {
    "COMPOUND": "CC(C)(C)c1cc(S(=O)(=O)O)c2oc(-c3ccccc3)cc(=O)c2c1",
    "OBSERVED_MEASUREMENT": "> 100 µM (inactive)"
  },
  {
    "COMPOUND": "O=S1(=O)c2ccccc2N2C(c3ccccc3)=NOC2(c2ccccc2)CC1c1ccc(Br)cc1 (stereo unspecified)",
    "OBSERVED_MEASUREMENT": "> 100 µM (inactive)"
  },
  {
    "COMPOUND": "Cc1cccc(-c2cc(=O)c3cc(C)c(C)c(C(=O)O)c3o2)c1",
    "OBSERVED_MEASUREMENT": "> 100 µM (inactive)"
  },
  {
    "COMPOUND": "c1ccc2c(c1)ccc1nc3ccccn3c12",
    "OBSERVED_MEASUREMENT": "> 100 µM (inactive)"
  },
  {
    "COMPOUND": "NNC(=O)N/N=C(/CC1(O)C(=O)Nc2ccc(Br)cc21)c1ccccc1 (stereo unspecified)",
    "OBSERVED_MEASUREMENT": "21.9 µM (inactive)"
  },
  {
    "COMPOUND": "CN(C)CC1(C)CC/C(=C\\c2ccc(Cl)cc2)C1=O (stereo unspecified)",
    "OBSERVED_MEASUREMENT": "19.7 µM (inactive)"
  }
]
